Measured Ki values are reported for all entries that follow.
assayedSystem: D(2) dopamine receptor (Bos taurus, UniProt P20288)
Sequence (P20288 whole entry): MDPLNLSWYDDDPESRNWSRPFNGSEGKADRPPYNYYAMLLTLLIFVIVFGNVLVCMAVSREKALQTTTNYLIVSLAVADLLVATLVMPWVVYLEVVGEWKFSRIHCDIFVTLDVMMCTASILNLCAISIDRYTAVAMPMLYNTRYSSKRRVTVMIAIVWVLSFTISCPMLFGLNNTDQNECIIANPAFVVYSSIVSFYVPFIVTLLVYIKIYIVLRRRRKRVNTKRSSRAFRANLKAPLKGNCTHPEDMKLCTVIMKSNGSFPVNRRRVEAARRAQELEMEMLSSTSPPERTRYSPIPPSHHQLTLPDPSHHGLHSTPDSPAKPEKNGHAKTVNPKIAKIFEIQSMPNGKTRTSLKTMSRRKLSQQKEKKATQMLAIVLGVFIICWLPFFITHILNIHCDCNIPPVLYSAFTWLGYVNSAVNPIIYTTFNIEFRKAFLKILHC
assayDetails: Compound was tested for inhibition of [3H]spiroperidol binding against Dopamine receptor D2
measuredQuantity: Ki (µM)

>  <compound>
CCCN(CCC)CCc1ccc(O)c(O)c1-c1ccc(O)cc1

>  <unitSpec>
µM

>  <obsValue>
1.8

$$$$
>  <compound>
NCC1c2cc(O)ccc2-c2c1ccc(O)c2O (configuration not stated)

>  <unitSpec>
µM

>  <obsValue>
5.74

$$$$
